Provenance of the data: patent US20210079109A1

Reported kon values follow for various binders
target: T1, recombinant human CD63 extracellular loop 2 expressed with a C-terminal Myc-Myc-hexahistidine (human); experiment: SPR Biacore, mAb captured, 37C
T1 construct: also called hCD63 EC loop 2-MMH; human CD63 EC loop 2-MMH
T1 sequence (chain, as listed by the source limits assumed): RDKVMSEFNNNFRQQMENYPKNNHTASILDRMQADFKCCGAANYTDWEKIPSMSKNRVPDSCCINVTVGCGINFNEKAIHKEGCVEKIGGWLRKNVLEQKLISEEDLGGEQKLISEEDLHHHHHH
The response must be a number in M⁻¹ s⁻¹ with no trailing unit.

Use these answered entries as a reference point.
Binder	kon (M⁻¹ s⁻¹)
H2M12454N (antibody, V domains shown, also called H2bM12454N) VH: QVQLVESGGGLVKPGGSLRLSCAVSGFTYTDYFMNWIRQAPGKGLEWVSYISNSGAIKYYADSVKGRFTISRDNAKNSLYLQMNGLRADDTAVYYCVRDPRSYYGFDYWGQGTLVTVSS VL: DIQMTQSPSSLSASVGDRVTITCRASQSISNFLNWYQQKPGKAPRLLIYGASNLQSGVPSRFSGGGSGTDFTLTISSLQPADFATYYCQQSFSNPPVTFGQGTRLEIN	559000
H1M12451N (antibody, V domains shown) VH: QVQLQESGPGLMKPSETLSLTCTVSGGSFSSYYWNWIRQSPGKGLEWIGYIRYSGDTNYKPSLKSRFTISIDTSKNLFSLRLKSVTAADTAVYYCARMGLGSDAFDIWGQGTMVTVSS VL: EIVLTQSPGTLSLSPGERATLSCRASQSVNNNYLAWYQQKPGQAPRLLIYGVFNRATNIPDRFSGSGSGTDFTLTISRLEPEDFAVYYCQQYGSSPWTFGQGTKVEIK	88900
H2M12387N (antibody, V domains shown, also called H2aM12387N) VH: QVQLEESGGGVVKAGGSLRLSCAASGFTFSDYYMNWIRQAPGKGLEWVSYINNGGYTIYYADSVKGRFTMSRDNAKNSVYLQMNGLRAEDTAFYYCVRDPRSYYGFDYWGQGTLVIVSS VL: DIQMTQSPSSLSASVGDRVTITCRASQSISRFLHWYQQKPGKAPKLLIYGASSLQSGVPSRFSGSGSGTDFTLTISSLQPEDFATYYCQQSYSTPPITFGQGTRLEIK	679000
H1M12362N (antibody, V domains shown) VH: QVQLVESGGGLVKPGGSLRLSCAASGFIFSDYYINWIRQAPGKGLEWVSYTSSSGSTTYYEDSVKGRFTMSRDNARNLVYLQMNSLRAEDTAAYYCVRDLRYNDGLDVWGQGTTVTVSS VL: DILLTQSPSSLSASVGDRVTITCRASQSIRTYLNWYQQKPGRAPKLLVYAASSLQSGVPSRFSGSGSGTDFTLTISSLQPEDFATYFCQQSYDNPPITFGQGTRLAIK	369000
H2M12452N (antibody, V domains shown, also called H2aM12452N) VH: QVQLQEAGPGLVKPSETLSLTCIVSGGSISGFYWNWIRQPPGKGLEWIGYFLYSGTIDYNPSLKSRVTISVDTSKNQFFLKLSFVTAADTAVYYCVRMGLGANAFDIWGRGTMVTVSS VL: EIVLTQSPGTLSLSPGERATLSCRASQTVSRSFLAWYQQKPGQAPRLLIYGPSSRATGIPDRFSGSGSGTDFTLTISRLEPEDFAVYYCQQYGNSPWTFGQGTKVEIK	385000

Next binder, please.
Q) Quick check: kon of H2M12450N (antibody, V domains shown, also called H2aM12450N; mAb12450) VH: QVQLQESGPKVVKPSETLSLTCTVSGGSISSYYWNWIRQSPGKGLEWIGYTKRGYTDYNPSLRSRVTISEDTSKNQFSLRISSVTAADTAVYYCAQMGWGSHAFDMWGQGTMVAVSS VL: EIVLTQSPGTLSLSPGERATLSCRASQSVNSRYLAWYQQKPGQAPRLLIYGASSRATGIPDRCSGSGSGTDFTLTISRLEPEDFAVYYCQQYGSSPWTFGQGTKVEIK ?
A) 175000
